experimental target: full length mouse TREX1 (Mus musculus, UniProt Q91XB0)
Construct: N-terminally His-Tev tagged full length mouse TREX1; made in house; host or cells: E. coli
Sequence (Q91XB0 whole entry): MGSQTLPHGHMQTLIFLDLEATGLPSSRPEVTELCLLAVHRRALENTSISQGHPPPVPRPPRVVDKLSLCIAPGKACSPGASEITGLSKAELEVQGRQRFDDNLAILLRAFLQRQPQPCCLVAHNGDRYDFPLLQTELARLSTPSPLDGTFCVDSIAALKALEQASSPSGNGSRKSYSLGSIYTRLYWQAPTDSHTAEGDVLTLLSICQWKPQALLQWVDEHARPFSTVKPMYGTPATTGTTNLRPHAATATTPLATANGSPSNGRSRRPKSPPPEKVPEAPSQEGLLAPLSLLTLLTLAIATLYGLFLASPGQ
procedure summary: mTREX1 Biochemical Assay (fluorescence, dsDNA substrate degradation)
measurement setup: biochemical, read-out: mTREX1 IC50
Assignment: determine reported IC50 for the given compounds.

Notebook: CC(c1nc(C(=O)Nc2cnoc2)c(O)c(=O)n1C)C(c1cnn(CCOC(F)(F)F)c1)c1cc(F)ccc1C#N (single isomer, unassigned) [Example 101 D1E2] , IC50 read as 1 to 10 nM

Notebook: CC(c1nc(C(=O)Nc2cnoc2)c(O)c(=O)n1C)C(c1ccccc1C#N)c1ccnn1C (single isomer, unassigned) [Example 1 D2E2] , IC50 read as > 10 nM

Notebook: CC(c1nc(C(=O)Nc2cnoc2)c(O)c(=O)n1C)C(c1ccccc1Cl)n1nccc1C(N)=O (single isomer, unassigned) [Example 147 D1E2] , IC50 read as > 10 nM

Notebook: CC(c1nc(C(=O)Nc2cnoc2)c(O)c(=O)n1C)C(c1cnc(C(F)(F)F)cn1)c1ccccc1C#N (single isomer, unassigned) [Example 118 D2E1] , IC50 read as > 10 nM

Notebook: CC(c1nc(C(=O)Nc2cnoc2)c(O)c(=O)n1C)C(c1cn[nH]c1)c1ccccc1C#N (single isomer, unassigned) [Example 12 D1E1] , IC50 read as 1 to 10 nM

Notebook: CCn1cc(C(c2cc(F)c(F)cc2Cl)C(C)c2nc(C(=O)Nc3cnoc3)c(O)c(=O)n2C)cn1 (single isomer, unassigned) [Example 72 D2E2] , IC50 read as > 10 nM

====

experimental target: hTREX1 (Homo sapiens, UniProt Q9NSU2)
Sequence (Q9NSU2 whole entry): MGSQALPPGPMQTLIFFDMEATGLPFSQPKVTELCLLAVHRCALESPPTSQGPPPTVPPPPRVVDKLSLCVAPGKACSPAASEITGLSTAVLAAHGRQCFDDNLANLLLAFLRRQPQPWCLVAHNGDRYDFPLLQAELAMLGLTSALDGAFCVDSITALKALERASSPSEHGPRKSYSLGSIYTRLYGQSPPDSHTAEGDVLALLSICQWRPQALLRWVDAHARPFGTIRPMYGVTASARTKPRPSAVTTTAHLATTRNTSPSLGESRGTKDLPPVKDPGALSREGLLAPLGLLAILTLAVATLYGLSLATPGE
procedure summary: hTREX1 HCT116 Cell Assay (HCT116 dual cells, Lucia luciferase reporter of Type I interferon induction)
measurement setup: TREX1i 4 h before pBR322/BstNI transfection, read after 48 h
Description: HCT116 dual cells (Invivogen, San Diego, CA, USA) are derived from the human HCT116 colorectal carcinoma cell line. Cells have been selected for the stable integration of SEAP and Luciferase reporter genes, which expression is under the control of 5 tandem response elements for NF-KB/AP1 and STAT1/STAT2, respectively. The cell line was used to monitor Type I interferon induction and subsequent signaling by measuring the activity of the Lucia luciferase secreted in the culture medium. […]
pIC50: −log10 of the molar value.
Assignment: determine reported pIC50 for the given compounds.

Notebook: Cc1cncc(C(c2ccccc2C#N)C(C)c2nc(C(=O)Nc3cnoc3)c(O)c(=O)n2C)n1 (single isomer, unassigned) [Example 53 D1E2] , pIC50 read as > 8.00

Notebook: Cc1cnc(C(c2ccccc2Cl)C(C)c2nc(C(=O)Nc3cnoc3)c(O)c(=O)n2C)cn1 (single isomer, unassigned) [Example 116 D1E1] , pIC50 read as < 7.00

Notebook: Cc1nn(C)cc1C(c1cc(F)ccc1C#N)C(C)c1nc(C(=O)Nc2cnoc2)c(O)c(=O)n1C (single isomer, unassigned) [Example 57 D1E2] , pIC50 read as > 8.00

====

experimental target: full length human TREX1 (Homo sapiens, UniProt Q9NSU2)
Construct: N-terminally His-Tev tagged full length human TREX1; made in house; host or cells: E. coli
Sequence (Q9NSU2 whole entry): as above
procedure summary: hTREX1 Biochemical Assay (fluorescence, dsDNA substrate degradation)
measurement setup: biochemical, read-out: hTREX1 IC50
Assignment: determine reported IC50 for the given compounds.

Notebook: Cc1ccc(C(c2ccccc2C#N)C(C)c2nc(C(=O)Nc3cnoc3)c(O)c(=O)n2C)cn1 (single isomer, unassigned) [Example 5 D1E1] , IC50 read as > 10 nM

Notebook: CC(c1nc(C(=O)Nc2cnoc2)c(O)c(=O)n1C)C(c1cn[nH]c1)c1ccccc1C#N (single isomer, unassigned) [Example 12 D1E1] , IC50 read as < 1 nM

Notebook: Cc1ncc(C(c2ccccc2C#N)C(C)c2nc(C(=O)Nc3cnoc3)c(O)c(=O)n2C)cn1 (single isomer, unassigned) [Example 67 D2E1] , IC50 read as > 10 nM

Notebook: Cc1cc(C(c2ccccc2C#N)C(C)c2nc(C(=O)Nc3cnoc3)c(O)c(=O)n2C)n(C)n1 (single isomer, unassigned) [Example 63 D2E2] , IC50 read as > 10 nM

Notebook: CC(c1nc(C(=O)Nc2cnoc2)c(O)c(=O)n1C)C(c1cnn(CC2CC2)c1)c1ccccc1C#N (single isomer, unassigned) [Example 23 D1E1] , IC50 read as > 10 nM

Notebook: CC(c1nc(C(=O)Nc2cnoc2)c(O)c(=O)n1C)C(c1ccccc1Cl)c1nncn1C (single isomer, unassigned) [Example 152 D1E1] , IC50 read as > 10 nM

Values were extracted from patent US20240246946A1.
